// reported Effect in % in respect of stated plant, AMARE for each item listed
Test system: Amaranthus retroflexus
Assay: Herbicidal effect pre-emergence, AMARE
Assay type: in vivo
Settings: 320 g/hectare, visual grading after 3 weeks vs untreated controls
QUANTITY: Effect in % in respect of stated plant, AMARE (%)

# MOLECULE, UNIT INFO, ENDPOINT RESULT
data = [
    ("N.N#CC(C#N)c1nc(-c2ccc(Cl)cc2F)nc(N)c1Cl [Compound 345]", "%", 90),
    ("N#C[C-](C#N)c1nc(-c2ccc(Cl)cc2)nc(N)c1Cl.[Na+] [Ex. No. 304]", "%", 90),
    ("N.N#CC(C#N)c1nc(-c2ccc(Br)cc2F)nc(N)c1Cl [Compound 392]", "%", 80),
    ("N.N#CC(C#N)c1nc(-c2ccc(Cl)cc2Cl)nc(N)c1Cl [Compound 375]", "%", 100),
    ("Cc1ccc(-c2nc(N)c(Cl)c(C(C#N)C#N)n2)c(F)c1F [compound 202]", "%", 90),
    ("Cc1ccc(-c2nc(N)c(Cl)c(C(C#N)C#N)n2)cc1.N [Compound 296]", "%", 100),
    ("Cc1ccc(-c2nc(N)c(Cl)c(C(C#N)C#N)n2)cc1 [compound 12]", "%", 100),
    ("N.N#CC(C#N)c1nc(-c2ccc(Cl)cc2)nc(N)c1Cl [Ex. No. 308]", "%", 100),
    ("N#CC(C#N)c1nc(-c2ccc(Cl)cc2F)nc(N)c1Cl [compound 110]", "%", 100),
]
